# Test system: MCF7
# testSummary: Antitumor activity against human MCF7 cells assessed as growth inhibition measured after 48 hrs by MTT assay
# Type: functional, cell-based
# setupConditions: MCF7, 48 h
pIC50: −log10 of the molar value.
Known pIC50 of a selection of molecules

The examples below pair each entry with its known result.
C/C=C(/C)C(=O)O[C@@H]1[C@@H](O)[C@H](O[C@H]2CC[C@]3(C)[C@H]4CC=C5[C@@H]6CC(C)(C)[C@@H](O)[C@H](O)[C@]6(CO[C@@H]6O[C@H](CO[C@@H]7O[C@H](CO)[C@@H](O)[C@H](O)[C@H]7O)[C@@H](O)[C@H](O)[C@H]6O[C@@H]6O[C@@H](C)[C@H](O)[C@@H](O)[C@H]6O)CC[C@@]5(C)[C@]4(C)CC[C@H]3C2(C)C)O[C@H](CO[C@@H]2O[C@H](CO)[C@@H](O)[C@H](O)[C@H]2O)[C@H]1O; < 4.00
C/C=C(/C)C(=O)O[C@H]1[C@H](O[C@H]2CC[C@]3(C)[C@H]4CC=C5[C@@H]6CC(C)(C)[C@@H](O)[C@H](O)[C@]6(CO[C@@H]6O[C@H](CO[C@@H]7O[C@H](CO)[C@@H](O)[C@H](O)[C@H]7O)[C@@H](O)[C@H](O)[C@H]6O[C@@H]6O[C@@H](C)[C@H](O)[C@@H](O)[C@H]6O)CC[C@@]5(C)[C@]4(C)CC[C@H]3C2(C)C)O[C@H](CO[C@@H]2O[C@H](CO)[C@@H](O)[C@H](O)[C@H]2O)[C@@H](O)[C@@H]1O; < 4.00

*Q* Recorded pIC50 of C/C=C(/C)C(=O)O[C@H]1[C@H](OC(=O)/C(C)=C\C)[C@]2(CO)[C@H](O)[C@H](O)[C@]3(C)C(=CC[C@@H]4[C@@]5(C)CC[C@H](O[C@@H]6O[C@H](C(=O)OC)[C@@H](O)[C@H](O)[C@H]6O[C@@H]6O[C@H](CO)[C@@H](O)[C@H](O)[C@H]6O)C(C)(C)[C@@H]5CC[C@]43C)[C@@H]2CC1(C)C , please.
*A* < 4.00

Cited source for all entries: ChEMBL document CHEMBL2311427
